Measured GI50 by item
System: IGROV-1
Test: NCI tumour cell line growth inhibition, 48 h
Active and inactive are the calls of the source. Cut-off read from the data, not from the text of the source: active = GI50 up to about 1.1 µM and inactive = higher.

Worked examples follow.
# COMPOUND, RESULT
measured = [
    ("CCOC(=O)CSc1c(C(=O)OCC)c(=O)n(-c2ccccc2)c(=S)n1-c1ccccc1", "20.5 µM (inactive)"),
    ("CCOC(=O)c1c2ccc(/C=C/c3ccccc3)ccc-2c(C(=O)OCC)c1N", "> 100 µM (inactive)"),
    ("COc1cccc2nc3c(C(=O)NCCN(C)C)cccc3cc12", "1.88 µM (inactive)"),
    ("COC(=O)[C@H](Cc1ccccc1)NC(=O)CCCCCCC(=O)NO", "17.7 µM (inactive)"),
    ("CC(NC(=O)c1ccccc1)(C(=O)O)C(=O)O", "> 100 µM (inactive)"),
]

Pending compound:
stdin: Find the measured GI50 of `COC(=O)C1(C(=O)OC)Cc2ccc(C)cc2C2=C1C(=O)c1ccccc1C2=O` and report it.
stdout: 19.4 µM (inactive)
